Hello, the source for this data is PubChem BioAssay (NCI), in case you need it.

Test system: NCI/ADR-RES ovarian
Test: NCI tumour cell line growth inhibition, 48 h
Can you tell me TGI for the items I'm about to list?

Molecule	TGI
CCCCc1ccc(-n2c(C)c(COC(=O)NC)c(COC(=O)NC)c2C)cc1	27.4 µM
Cc1ccc(C2(c3ccc(C)cc3)SC(=C(C#N)C#N)c3ccccc32)cc1	> 100 µM
CN(C)CCn1nc2c3c(c(C(=O)NCCCN(C)CCCNC(=O)c4ccc5c6c(nn5CCN(C)C)-c5ccccc5Nc46)ccc31)Nc1ccccc1-2	> 71.2 µM

Would you be so kind as to report TGI for each listed record?
1. O=C(Oc1cccc2cccnc12)c1cc2cc(CCl)ccc2oc1=O
2. CC(=O)OCC1OC(n2c(-c3ccc(C)cc3)cc(-c3ccco3)c(C#N)c2=S)C(OC(C)=O)C(OC(C)=O)C1OC(C)=O (centres undefined)
3. COC(=O)c1c(OC(C)=O)ccc2c1c1c(OC(C)=O)c3ccccc3c(OC(C)=O)c1n2C

stdout:
["> 100 µM", "> 100 µM", "> 100 µM"]
